Origin of the recorded values: ChEMBL document CHEMBL3588744

- measured target: Bromodomain and PHD finger-containing protein 3 (Homo sapiens)
- Sequence (Q9ULD4 whole entry): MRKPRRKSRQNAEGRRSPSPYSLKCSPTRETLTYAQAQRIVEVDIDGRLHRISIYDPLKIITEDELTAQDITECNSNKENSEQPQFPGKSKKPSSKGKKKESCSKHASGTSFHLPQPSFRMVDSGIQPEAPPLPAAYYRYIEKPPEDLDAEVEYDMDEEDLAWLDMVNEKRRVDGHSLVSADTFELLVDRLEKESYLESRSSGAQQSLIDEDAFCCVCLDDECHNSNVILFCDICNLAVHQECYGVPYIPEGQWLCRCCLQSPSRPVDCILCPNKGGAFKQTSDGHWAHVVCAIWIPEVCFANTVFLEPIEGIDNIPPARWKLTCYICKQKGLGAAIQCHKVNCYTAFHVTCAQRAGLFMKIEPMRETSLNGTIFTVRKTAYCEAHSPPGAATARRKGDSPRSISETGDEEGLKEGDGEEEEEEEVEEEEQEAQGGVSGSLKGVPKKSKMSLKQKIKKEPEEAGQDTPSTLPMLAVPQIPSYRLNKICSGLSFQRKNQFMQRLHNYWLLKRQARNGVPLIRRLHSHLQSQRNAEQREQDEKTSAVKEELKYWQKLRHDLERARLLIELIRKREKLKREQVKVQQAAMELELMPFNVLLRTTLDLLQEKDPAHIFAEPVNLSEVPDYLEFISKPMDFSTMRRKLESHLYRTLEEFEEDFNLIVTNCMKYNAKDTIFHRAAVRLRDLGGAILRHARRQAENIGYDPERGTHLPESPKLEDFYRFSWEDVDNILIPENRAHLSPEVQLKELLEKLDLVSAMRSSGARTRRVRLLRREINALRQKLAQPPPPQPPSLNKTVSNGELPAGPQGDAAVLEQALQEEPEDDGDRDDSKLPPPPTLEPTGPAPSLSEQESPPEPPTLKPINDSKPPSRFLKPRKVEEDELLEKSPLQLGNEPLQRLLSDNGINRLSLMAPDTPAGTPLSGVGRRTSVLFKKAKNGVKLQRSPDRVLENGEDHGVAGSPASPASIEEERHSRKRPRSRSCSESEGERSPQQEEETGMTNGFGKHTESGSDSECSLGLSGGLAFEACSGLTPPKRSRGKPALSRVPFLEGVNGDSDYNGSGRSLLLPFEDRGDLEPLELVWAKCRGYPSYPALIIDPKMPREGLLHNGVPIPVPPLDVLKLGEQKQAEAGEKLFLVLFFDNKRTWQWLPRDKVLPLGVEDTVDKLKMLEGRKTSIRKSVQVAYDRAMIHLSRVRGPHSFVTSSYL
- test details: Binding affinity to BRPF3 (unknown origin) by BROMOscan panel based assay
outcome measure: pKi
Keep it numeric: pKi is minus log10 of the concentration in mol/L.

pKi for "Cc1cncc(-c2cnc(N[C@@H]3CCN(C)C[C@H]3OCC3CCS(=O)(=O)CC3)c3[nH]c(=O)c(C)cc23)c1" is 6.10

====

- measured target: Transcription initiation factor TFIID subunit 1 (Homo sapiens)
- Sequence (P21675 whole entry): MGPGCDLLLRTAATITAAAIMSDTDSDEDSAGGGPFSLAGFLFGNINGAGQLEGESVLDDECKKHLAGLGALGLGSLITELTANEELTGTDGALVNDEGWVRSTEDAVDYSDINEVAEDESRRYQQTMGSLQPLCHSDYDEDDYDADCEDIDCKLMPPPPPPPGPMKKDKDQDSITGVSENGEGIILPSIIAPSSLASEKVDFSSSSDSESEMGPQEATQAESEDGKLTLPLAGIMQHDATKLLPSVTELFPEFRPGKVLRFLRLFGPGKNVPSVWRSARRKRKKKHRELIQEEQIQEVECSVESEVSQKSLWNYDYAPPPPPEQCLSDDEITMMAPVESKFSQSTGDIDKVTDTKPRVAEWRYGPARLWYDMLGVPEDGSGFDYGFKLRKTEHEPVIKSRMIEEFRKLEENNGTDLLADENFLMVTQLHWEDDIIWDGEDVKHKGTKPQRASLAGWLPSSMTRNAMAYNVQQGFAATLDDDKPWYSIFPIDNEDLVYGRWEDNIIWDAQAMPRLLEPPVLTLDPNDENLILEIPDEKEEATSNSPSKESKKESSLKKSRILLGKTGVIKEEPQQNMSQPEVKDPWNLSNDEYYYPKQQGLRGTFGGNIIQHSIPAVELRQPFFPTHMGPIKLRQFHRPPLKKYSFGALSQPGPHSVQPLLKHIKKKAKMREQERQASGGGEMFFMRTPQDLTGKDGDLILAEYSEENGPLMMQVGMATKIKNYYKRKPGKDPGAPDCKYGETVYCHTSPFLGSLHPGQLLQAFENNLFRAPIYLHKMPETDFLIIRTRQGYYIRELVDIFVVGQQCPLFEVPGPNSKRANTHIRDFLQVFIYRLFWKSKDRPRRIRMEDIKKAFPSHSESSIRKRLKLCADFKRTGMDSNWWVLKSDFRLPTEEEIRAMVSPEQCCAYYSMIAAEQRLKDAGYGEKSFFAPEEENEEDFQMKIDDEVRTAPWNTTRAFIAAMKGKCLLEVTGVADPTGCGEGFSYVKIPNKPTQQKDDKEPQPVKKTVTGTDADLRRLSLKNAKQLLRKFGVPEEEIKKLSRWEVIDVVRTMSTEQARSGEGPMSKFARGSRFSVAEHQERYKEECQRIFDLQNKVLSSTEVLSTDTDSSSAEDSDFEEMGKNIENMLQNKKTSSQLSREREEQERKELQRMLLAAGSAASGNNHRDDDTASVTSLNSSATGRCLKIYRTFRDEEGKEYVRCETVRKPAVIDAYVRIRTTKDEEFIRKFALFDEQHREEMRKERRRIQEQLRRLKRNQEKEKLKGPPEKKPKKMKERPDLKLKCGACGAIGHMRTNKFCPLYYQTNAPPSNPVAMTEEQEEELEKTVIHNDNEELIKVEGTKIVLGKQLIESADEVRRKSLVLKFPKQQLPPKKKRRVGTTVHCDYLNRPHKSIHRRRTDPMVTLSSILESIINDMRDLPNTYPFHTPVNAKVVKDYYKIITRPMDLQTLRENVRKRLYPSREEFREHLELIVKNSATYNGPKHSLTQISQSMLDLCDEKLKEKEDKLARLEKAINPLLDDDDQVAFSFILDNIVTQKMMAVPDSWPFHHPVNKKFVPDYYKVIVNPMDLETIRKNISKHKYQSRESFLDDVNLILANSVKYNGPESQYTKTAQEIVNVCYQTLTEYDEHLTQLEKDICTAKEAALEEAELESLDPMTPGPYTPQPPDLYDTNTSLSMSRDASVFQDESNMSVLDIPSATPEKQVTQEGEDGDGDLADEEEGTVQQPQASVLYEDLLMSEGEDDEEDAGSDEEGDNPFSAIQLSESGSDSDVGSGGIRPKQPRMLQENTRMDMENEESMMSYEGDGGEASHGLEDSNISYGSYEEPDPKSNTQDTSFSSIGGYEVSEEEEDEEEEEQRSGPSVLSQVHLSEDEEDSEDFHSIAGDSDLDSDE
- test details: Binding affinity to TAF1 (unknown origin) by BROMOscan panel based assay
outcome measure: pKi
To interpret pKi, take it as minus log10 of a concentration measured in moles per litre.

The measured pKi associated with "Cc1cncc(-c2cnc(N[C@@H]3CCN(C)C[C@H]3OCC3CCS(=O)(=O)CC3)c3[nH]c(=O)c(C)cc23)c1" reads 7.30
